Overview of reported Kd across a group of compounds:
target: Influenza A virus M2 proton channel (A/TW/4845/1999 H1N1); test: M2 proton channel binding, NMR based, influenza A virus H1N1 strain (AID 1549); conditions: NMR binding screen, M2 protein
The source made the active and inactive calls. No rule for the calls is given here.

Examples from the recorded data:
compound: O=C(c1ccc(Cl)s1)N1CCOCC1
targetOrSystem: Influenza A virus M2 proton channel (A/TW/4845/1999 H1N1)
result: > 4 mM (inactive)
--
compound: CC(=O)Nc1ccc(C(=O)n2nc(C)cc2C)cc1
targetOrSystem: Influenza A virus M2 proton channel (A/TW/4845/1999 H1N1)
result: > 4 mM (inactive)
--
compound: Cc1ncc(C[n+]2csc3ccccc32)c(N)n1
targetOrSystem: Influenza A virus M2 proton channel (A/TW/4845/1999 H1N1)
result: > 4 mM (inactive)
--
compound: O=C(NCCO)c1ccccc1I
targetOrSystem: Influenza A virus M2 proton channel (A/TW/4845/1999 H1N1)
result: > 4 mM (inactive)
--
compound: c1ccc2[nH]c(CCn3cncn3)nc2c1
targetOrSystem: Influenza A virus M2 proton channel (A/TW/4845/1999 H1N1)
result: > 4 mM (inactive)

Entry under test: O=C1c2ccccc2-c2ncnc3cccc1c23 . Its Kd was > 4 mM (inactive)

Notebook: c1cncc(Nc2nc(-c3ccncc3)cs2)c1 , Kd read as > 4 mM (inactive)

The compound listed as O=C1CS/C(=N/N=C2CCCC2)N1 has a reported Kd of > 4 mM (inactive)

Notebook: CCOC(=O)c1ccc(F)c(F)c1 , Kd read as > 4 mM (inactive)

====

target: Influenza A virus M2 proton channel (A/TW/4845/1999 H1N1); experiment: M2 proton channel binding, NMR based, influenza A virus H1N1 strain (AID 1549); conditions: NMR binding screen, M2 protein
The source made the active and inactive calls. No rule for the calls is given here.
Here, each record is paired with measured Kd data.

The reported value for O=C(Oc1ccc2c(c1)OCC2=O)c1ccccc1 in terms of Kd is > 4 mM (inactive)

For CC(=O)N1CCn2c3c(c(=O)c4cc(C)ccc42)CCC31 (stereo not given) the molecule record lists Kd as > 4 mM (inactive)

Record summary for Cc1cc(NC(=O)c2cccc(N3C(=O)CCC3=O)c2)no1 : reported Kd = > 4 mM (inactive)

Query CCOC(=O)c1c(C)nc2sccn12 yields Kd of > 4 mM (inactive)

Kd reading for CC(=O)NC(C)(C)C1CC=C(C)/C(=N\O)C1 (stereo not given) : > 4 mM (inactive)

Looking up Cc1nnc(NCc2cccnc2)[nH]c1=O , I see its Kd listed as > 4 mM (inactive)

What the record says about O=c1[nH]cc(S(=O)(=O)N2CCc3ccccc32)c(=O)[nH]1 : Kd is > 4 mM (inactive)

What the record says about COC(=O)C[C@H]1C2(C)CC34OC5(C)O[C@@]6([C@H](OC(C)=O)C(OC(C)=O)[C@]7(C)C(/C(=C(/O)C(C)C)C(=O)O[C@H]7c7ccoc7)[C@@]6(O5)[C@H](OC(C)=O)[C@@]3(O)C2OC(=O)C(C)C)[C@]14C (stereo not given in full) : Kd is > 4 mM (inactive)

The reported value for Cc1onc(-c2c(F)cccc2Cl)c1C(N)=O in terms of Kd is > 4 mM (inactive)

response.value for Cc1noc(C)c1C(=O)N1CCC2(CC1)OCCO2 (field: Kd) = > 4 mM (inactive)

Lab note: NCc1csc2ccccc12 gave Kd of > 4 mM (inactive)

Field Kd (entry O=C(NC(=S)NCc1cccnc1)c1ccco1 ) reads > 4 mM (inactive)

Noted for O=C1CCN(c2ccccc2)N1 : its Kd reads > 4 mM (inactive)

The recorded Kd for entry Cc1ccc(N2C(=O)CCC2=O)cc1 equals > 4 mM (inactive)

Data point: COCc1cc(=O)oc2cc(O)c(Cl)cc12 ; Kd = > 4 mM (inactive)

# credit: PubChem BioAssay AID1549
